Field: IC50. Provide a value for each of the compounds that follow.
System: AML (Acute myeloid leukemia) PDCs, M4 subtype (SB 33866)
Test: Anti-proliferation assay on AML PDCs
Format: cell-based, human
Conditions: Homo sapiens; AML cells (M4); read-out: Inhibitory Concentration IC50
Experimental: Anti-proliferation assays were performed on 6 types of primary patient-derived cancer cells (PDCs) from 6 different human donors, as described in Table 1: […] Once extracts were added to incubated cells and mixed gently, the plate was given a brief spin and incubated in the CO2 incubator for 72 hours. […] The plate was incubated (10 min) and luminescence counts measured, with luminescence produced proportional to the number of viable (living, metabolically active) cells for each assay. […]
Answers are plain numbers, in nM.

[
  {
    "MOL": "COc1cccc2c1C(=O)c1c(O)c3c(c(O)c1C2=O)C[C@@](O)(C(=O)CO)C[C@@H]3O[C@H]1C[C@H](N)[C@H](O)[C@H](C)O1",
    "IC50 / nM": 103
  }
]

Incoming: Recorded IC50 of Nc1ccn([C@@H]2O[C@H](CO)[C@@H](O)[C@@H]2O)c(=O)n1 , please.
Outgoing: 104

Values from patent US20220233624A9
